Reference source: patent US20260242478A1

Target: T1, Anti-PSMA Fab (SEQ ID NOs: 19, 20) (biotinylated (site not stated))
T1 construct: also called 006 PSMA Fab
Experiment: phage ELISA; biotinylated PSMA Fab on neutravidin plate, clonal phage supernatant, anti-M13 HRP detection;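 also: wells preincubated with PSMA antigen in blocking buffer or with blocking buffer only before clonal phage were added for a short incubation, then bound phage detected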
Where no end group is shown, it is not given here.
The following binders are shown together with reported Phage binding ELISA, Anti-PSMA Fab (SEQ ID NOs: 19, 20) signal values.
Give a plain numeric answer without units written out.

Use these answered entries as a reference point.
binder	data.value
VEKLCKPIWMCNWQ (Clonal phage of the Peptide-180 library, tested as crude supernatant; not shown: fused to the pIII filament protein of the bacteriophage) [Phage-1935]	1.96
AEKWCIPAWMCEAM (Clonal phage of the Peptide-180 library, tested as crude supernatant; not shown: fused to the pIII filament protein of the bacteriophage) [Phage-1929]	1.98
DFKWCTPMWMCEHL (Clonal phage of the Peptide-180 library, tested as crude supernatant; not shown: fused to the pIII filament protein of the bacteriophage) [Phage-1932]	1.97
ELHLCIPRGMCKFR (Clonal phage of the Peptide-180 library, tested as crude supernatant; not shown: fused to the pIII filament protein of the bacteriophage) [Phage-1928]	1.98

Enquiry: Find the recorded Phage binding ELISA, Anti-PSMA Fab (SEQ ID NOs: 19, 20) signal belonging to FAKWCTPEWMCVGF (Clonal phage of the Peptide-180 library, tested as crude supernatant; not shown: fused to the pIII filament protein of the bacteriophage) [Phage-1926] and report it.
Return: 1.99

Enquiry: Next entry: TEMWCKPAWMCTGF (Clonal phage of the Peptide-180 library, tested as crude supernatant; not shown: fused to the pIII filament protein of the bacteriophage) [Phage-1925]
Return: 1.99

Enquiry: Consider next the binder VDRWCVPVWMCEGL (cysteine pairing not given here; also: displayed as fusion to phage pIII, Clonal phage of the Peptide-180 library, tested as crude supernatant; not shown: fused to the pIII filament protein of the bacteriophage) [Phage-1921] in the same way.
Return: 1.99

Enquiry: // repeat for VQNWCIPAWMCQGM (Clonal phage of the Peptide-180 library, tested as crude supernatant; not shown: fused to the pIII filament protein of the bacteriophage) [Phage-1930] and report
Return: 1.98

Enquiry: // same read-out, input: TEKLCIPEWMCFGM (Clonal phage of the Peptide-180 library, tested as crude supernatant; not shown: fused to the pIII filament protein of the bacteriophage) [Phage-1924]
Return: 1.99
